Origin of values: ChEMBL document CHEMBL4396955

system: Peroxisome proliferator-activated receptor gamma (Homo sapiens, UniProt P37231)
Sequence (P37231 whole entry, the tested form may be a part): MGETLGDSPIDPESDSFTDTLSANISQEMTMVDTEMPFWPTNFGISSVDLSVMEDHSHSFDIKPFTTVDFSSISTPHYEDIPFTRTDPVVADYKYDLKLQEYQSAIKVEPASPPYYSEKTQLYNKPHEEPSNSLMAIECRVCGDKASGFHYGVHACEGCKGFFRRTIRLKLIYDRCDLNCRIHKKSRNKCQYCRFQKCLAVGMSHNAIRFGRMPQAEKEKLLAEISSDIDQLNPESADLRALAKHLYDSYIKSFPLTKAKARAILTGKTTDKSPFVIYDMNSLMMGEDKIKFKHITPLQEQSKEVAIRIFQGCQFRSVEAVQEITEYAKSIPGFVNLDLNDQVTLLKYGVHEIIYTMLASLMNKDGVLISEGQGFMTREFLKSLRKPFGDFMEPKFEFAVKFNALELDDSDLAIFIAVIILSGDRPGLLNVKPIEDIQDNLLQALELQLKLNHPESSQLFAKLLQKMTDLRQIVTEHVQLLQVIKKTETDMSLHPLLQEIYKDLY
experimental.protocol: Antagonist activity at human PPARgamma LBD expressed in yeast AH109 cells assessed as reduction in rosiglitazone-stimulated PPARgamma/CBP interaction by measuring alpha galactosidase activity using PNP-alpha-Gal as substrate by alpha-galactosidase based yeast-two hybrid assay
observable: IC50 (µM)
Number in µM, nothing else.

IN: For the compound CCOc1cc(/C=C2\S/C(=N/c3ccc(Cl)c(C(=O)O)c3)N(C)C2=O)cc(Cl)c1O , report IC50.
OUT: 7.97
